Cited source: paper PMC5426849

# testSystem: T1, Nap4/SOCS7 SH2 domain, monomeric, cleaved from GST (human, UniProt O14512 400-509)
# T1 sequence: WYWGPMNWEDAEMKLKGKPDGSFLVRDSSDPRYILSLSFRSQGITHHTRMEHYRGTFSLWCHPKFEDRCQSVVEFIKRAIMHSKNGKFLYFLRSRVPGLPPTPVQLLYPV
# experimentalDetails: fluorescence polarisation
Non-standard residues stand in square brackets, D forms with d. No end group written: not given here. Flu = 5-carboxyfluorescein, coupled after removal of the final Fmoc group; pY = N[C@@H](Cc1ccc(OP(=O)(O)O)cc1)C(=O)O
recordedMetric: Kd

Item Flu-EDDT[pY]DGYE [fluoresceinated cortactin phospho-Y482 peptide] has what recorded Kd? > 5 µM
